// provenance: PubChem BioAssay (NCI)

tested on: UACC-62 melanoma; assay: NCI tumour cell line growth inhibition, 48 h
Measured GI50, listed per entry for reference.

Below, each entry is followed by its recorded GI50 result.
compound: COc1ccc2c(=O)cc(-c3ccccc3)[nH]c2c1
measurement: 431 nM
--
compound: CC(C)c1c(-c2ccccc2)nc2c(C#N)c[nH]n2c1=O
measurement: 24300 nM
--
compound: O=S(=O)(NCCNc1nccc(-c2c(-c3ccc(F)c(O)c3)nc3sccn23)n1)c1ccc(F)cc1
measurement: 587 nM
--
compound: CC[C@H](Nc1ncnc2nc[nH]c12)c1nc2cccc(F)c2c(=O)n1-c1ccccc1
measurement: 3520 nM

Exercise: Which GI50 is reported for this compound? CC(=O)c1ccc2c(c1)C1C=CCC1[C@H](c1cc3c(cc1Br)OCO3)N2 (stereo not given in full)
Key: 1460 nM

* * *

test system: TK-10 renal; experiment: NCI tumour cell line growth inhibition, 48 h
experimental readout: TGI

Below, each entry is followed by its recorded TGI result.
molecule: CC1=CC(=O)CC2(C)CC[C@@H]3C[C@]12OC3(C)C (some centres undefined)
subject of test: TK-10 renal
experimental readout: TGI
measurement: > 100 µM

molecule: CCCCCCCCCCCCCCCCCC1=NC(C)(C)CN1CC(C)O (centres undefined)
subject of test: TK-10 renal
experimental readout: TGI
measurement: 39 µM

molecule: Cc1ccc(NC=O)c(-c2c(N)[nH]c(=S)[nH]c2=O)c1
subject of test: TK-10 renal
experimental readout: TGI
measurement: > 100 µM

Exercise: Which TGI is reported for this molecule? Clc1ccc(C2=NN=C3C(c4ccccc4)=Nc4ccccc4N3C2)cc1
Key: > 50.2 µM

Exercise: Which TGI is reported for this molecule? COc1ccc2nc(-c3ccccc3)cc(OCC(=O)O)c2c1
Key: > 100 µM

* * *

tested on: SF-295 CNS; test: NCI tumour cell line growth inhibition, 48 h
experimental readout: GI50

Below, each entry is followed by its recorded GI50 result.
chem smiles: Cc1nc(-c2ccccc2)n2nc(NCCCN3CCOCC3)ncc12
GI50: > 25 µM

chem smiles: COc1ccc(/C=C/C(=O)/C=C/c2cc3ccccc3[nH]c2=O)cc1
GI50: 2.65 µM

chem smiles: Nc1ccccc1C#C/C=C\C#Cc1ccc(OCCCNC(=O)c2cc3ccccc3[nH]2)cc1
GI50: 12.1 µM

chem smiles: Cn1c(C(=O)c2ccncc2)cc2ccccc21
GI50: > 100 µM

chem smiles: COc1ccc(-c2ccncc2)cc1C(N)=O
GI50: > 25 µM

Query molecule follows.
Exercise: Which GI50 is reported for this molecule? O=C1/C(=C/c2cccc(Br)c2)COc2ccc(O)cc21
Key: 10.4 µM

* * *

tested on: SW-620 colon; assay: NCI tumour cell line growth inhibition, 48 h
experimental readout: TGI

compound: c1ccc(C(NCC2CCO2)(c2ccccc2)c2ccccc2)cc1 (stereo not given)
TGI: 44.4 µM
//
compound: CCOC(=O)C(=O)Nc1ccccc1C
TGI: > 100 µM
//
compound: CN(C)CCNc1ccc(CO)c2sc3ccc(O)cc3c(=O)c12
TGI: 10.5 µM
//
compound: NC(=S)/N=C(/c1nc2ccc(Cl)cc2[nH]c1=O)C(O)c1ccccc1Cl (stereo not given)
TGI: > 100 µM
//
compound: COc1ccc(-n2c(N)c(C#N)[nH]c2=O)cc1
TGI: > 10 µM
//
compound: NS(=O)(=O)c1ccc(-n2nc3c(c2-c2ccc(Cl)cc2)Cc2ccccc2-3)cc1
TGI: 4.48 µM
//
compound: COC(=O)CCC1=C(CC(=O)OC)C(C)(OC)N=C1NC(=O)OCc1ccccc1 (stereo not given)
TGI: > 100 µM
//
compound: COc1ccc(OC)c(NC(=O)CCC/C(CC(=O)c2ccc(O)c(OC)c2)=N\Nc2nnc(C)n2N)c1
TGI: > 100 µM
//
compound: O=[N+]([O-])c1cc(Cl)c2[nH]c3c(Cl)cc([N+](=O)[O-])cc3c2c1
TGI: > 100 µM
//
compound: COc1cc2c(cc1OC)C(=O)N(c1ccc(O)cc1)C2=O
TGI: > 100 µM

Exercise: Which TGI is reported for this compound? CC(C)(C)c1cc(C(O)(C(F)(F)F)C(F)(F)F)c2c(c1)C(C(F)(F)F)(C(F)(F)F)OC(C)(C(C)(C)C)N2 (stereo not given)
Key: 44.6 µM

Exercise: Which TGI is reported for this compound? O=C(c1nc2ccc([N+](=O)[O-])cc2[nH]c1=O)C(O)c1ccc2c(c1)OCO2 (stereo not given)
Key: > 100 µM

Exercise: Which TGI is reported for this compound? O=C(/C=C/c1cccc(Oc2ccccc2)c1)NCc1ccc(C(=O)NCc2ccccc2)cc1
Key: > 100 µM

Exercise: Which TGI is reported for this compound? Cc1ccc(NC=O)c(-c2c(N)[nH]c(=S)[nH]c2=O)c1
Key: > 100 µM
